List of Bliss excess values.
Test system: G-361 (Melanoma)
protocol-text: Bliss excess, mean over the matrix (fraction); higher = more synergy;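 also: after 72 h of two-drug dosing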
// keep it numeric: no unit symbol after the value

Previously resolved entries follow.
molecule | Bliss excess
COc1cc2c(cc1OCCCCCOc1cc3c(cc1OC)C(=O)N1C=C(C)C[C@H]1C=N3)N=C[C@@H]1CC(C)=CN1C2=O [SG3199] + O=C(c1cc(Cc2n[nH]c(=O)c3ccccc23)ccc1F)N1CCN(C(=O)C2CC2)CC1 [Olaparib] (first compound max 0.001 µM, 7x7, partner max 10 µM) | -0.0294
CC1(C)CCC(CN2CCN(c3ccc(C(=O)NS(=O)(=O)c4ccc(NCC5CCOCC5)c([N+](=O)[O-])c4)c(Oc4cnc5[nH]ccc5c4)c3)CC2)=C(c2ccc(Cl)cc2)C1 [Venetoclax] + Cc1cc2ncnn2cc1Nc1ncc2c(n1)n(C1CCOCC1)c(=O)n2C [AZD7648] (first compound max 1 µM, 7x7, partner max 10 µM) | -0.0147
NC1(C(=O)N[C@@H](CCO)c2ccc(Cl)cc2)CCN(c2ncnc3[nH]ccc23)CC1 [Capivasertib] + CC(C)n1c(=O)n(C)c2cnc3cc(F)c(-c4ccc(OCCCN5CCCCC5)nc4)cc3c21 [AZD1390] (first compound max 10 µM, 7x7, partner max 0.3 µM) | -0.0344

Looking for the measured Bliss excess of COc1cccc(OCCCN)c1-c1cc(Nc2cnc(C#N)cn2)n[nH]1 [Prexasertib] + O=C(c1cc(Cc2n[nH]c(=O)c3ccccc23)ccc1F)N1CCN(C(=O)C2CC2)CC1 [Olaparib] (first compound max 1 µM, 7x7, partner max 10 µM) , can you help?
-0.0411

----------
System: KU812 (Chronic Myelogenous Leukemia)
protocol-text: Bliss excess, mean over the matrix (fraction); higher = more synergy
List of Bliss excess values.
// keep it numeric: no unit symbol after the value

molecule | target-system | readout-number
Cn1cnc2c(F)c(Nc3ccc(Br)cc3Cl)c(C(=O)NOCCO)cc21 [Selumetinib] + C[C@@H]1COCCN1C2=NC(=NC(=C2)C3(CC3)[S@](=N)(=O)C)C4=C5C=CNC5=NC=C4 [AZD6738] (first compound max 10 µM, 7x7, partner max 10 µM) | KU812 (Chronic Myelogenous Leukemia) | -0.0779
CC1(C)CCC(CN2CCN(c3ccc(C(=O)NS(=O)(=O)c4ccc(NCC5CCOCC5)c([N+](=O)[O-])c4)c(Oc4cnc5[nH]ccc5c4)c3)CC2)=C(c2ccc(Cl)cc2)C1 [Venetoclax] + Cc1cc2ncnn2cc1Nc1ncc2c(n1)n(C1CCOCC1)c(=O)n2C [AZD7648] (first compound max 1 µM, 7x7, partner max 10 µM) | KU812 (Chronic Myelogenous Leukemia) | -0.0174
CCN(CCO)CCCOc1ccc2c(Nc3cc(CC(=O)Nc4cccc(F)c4)[nH]n3)ncnc2c1 [AZD2811] + C=CCn1c(=O)c2cnc(Nc3ccc(N4CCN(C)CC4)cc3)nc2n1-c1cccc(C(C)(C)O)n1 [AZD1775] (first compound max 1 µM, partner max 1 µM) | KU812 (Chronic Myelogenous Leukemia) | -0.034

Now for another entry.
Recorded Bliss excess for NC1(C(=O)N[C@@H](CCO)c2ccc(Cl)cc2)CCN(c2ncnc3[nH]ccc23)CC1 [Capivasertib] + CC(=O)c1c(C)c2cnc(Nc3ccc(N4CCNCC4)cn3)nc2n(C2CCCC2)c1=O [Palbociclib] (first compound max 10 µM, 7x7, partner max 10 µM) with KU812 (Chronic Myelogenous Leukemia), please?
0.0662
